Where do these numbers come from? They come from patent US9567302B2.

# system: MAGL (Mus musculus)
# Sequence (O35678 whole entry): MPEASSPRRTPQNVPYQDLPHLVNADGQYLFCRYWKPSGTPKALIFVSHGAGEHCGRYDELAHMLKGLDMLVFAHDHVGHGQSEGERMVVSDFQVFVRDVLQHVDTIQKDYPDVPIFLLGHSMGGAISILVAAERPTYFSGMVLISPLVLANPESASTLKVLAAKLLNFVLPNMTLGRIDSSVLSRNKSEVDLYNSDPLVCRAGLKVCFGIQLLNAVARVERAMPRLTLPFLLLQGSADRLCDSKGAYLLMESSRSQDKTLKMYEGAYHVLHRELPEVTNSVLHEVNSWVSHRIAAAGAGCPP
# assay.notes: In vitro competitive activity-based protein profiling (FP-Rh), mouse MAGL
# Type: biochemical
# Design: from tissue; host or cells: mouse brain membrane fraction
# particulars: Table 1, mouse proteome, 30 min preincubation at 37° C.
Listed next: entries and their corresponding IC50.
quantity: IC50

INSERT INTO assay_data (compound, quantity, result) VALUES
  ('O=C(ON1C(=O)C2CCCCC2C1=O)N1CCN(C(c2ccc(Cl)cc2)c2ccc(Cl)cc2)CC1 (stereo not drawn) [Example 45]', 'IC50', '1000 to 10000 nM'),
  ('O=C(ON1C(=O)CCC1=O)N1CCN(Cc2cccc(Oc3ccccc3)c2)CC1 [Example 7]', 'IC50', '< 100 nM'),
  ('CN(CCc1ccccc1)C(=O)ON1C(=O)CCC1=O [Example 15]', 'IC50', '> 10000 nM'),
  ('CCCCCCCC/C=C\CCCCCCCCNC(=O)ON1C(=O)CCC1=O [Example 31]', 'IC50', '1000 to 10000 nM'),
  ('COc1ccc(N2CCN(C(=O)ON3C(=O)NC(C(C)C)C3=O)CC2)cc1 (stereo not drawn) [Example 55]', 'IC50', '> 10000 nM'),
  ('CC(C)C1NC(=O)N(OC(=O)N2CCN(C(c3ccc(Cl)cc3)c3ccc(Cl)cc3)CC2)C1=O (stereo not drawn) [Example 47]', 'IC50', '100 to 1000 nM'),
  ('CN(C)C(=O)ON1C(=O)CCC1=O [Example 57]', 'IC50', '> 10000 nM'),
  ('C#CCCCCNC(=O)ON1C(=O)CCC1=O [Example 28]', 'IC50', '> 10000 nM'),
  ('O=C(ON1C(=O)CCC1=O)N1CCN(Cc2ccc(Br)cc2Oc2ccccc2)CC1 [Example 37]', 'IC50', '< 100 nM');
